target: Sphingosine 1-phosphate receptor 1 (Homo sapiens, UniProt P21453); experiment: Agonist activity at S1P1 (unknown origin) by HTRF assay
Sequence (P21453 whole entry): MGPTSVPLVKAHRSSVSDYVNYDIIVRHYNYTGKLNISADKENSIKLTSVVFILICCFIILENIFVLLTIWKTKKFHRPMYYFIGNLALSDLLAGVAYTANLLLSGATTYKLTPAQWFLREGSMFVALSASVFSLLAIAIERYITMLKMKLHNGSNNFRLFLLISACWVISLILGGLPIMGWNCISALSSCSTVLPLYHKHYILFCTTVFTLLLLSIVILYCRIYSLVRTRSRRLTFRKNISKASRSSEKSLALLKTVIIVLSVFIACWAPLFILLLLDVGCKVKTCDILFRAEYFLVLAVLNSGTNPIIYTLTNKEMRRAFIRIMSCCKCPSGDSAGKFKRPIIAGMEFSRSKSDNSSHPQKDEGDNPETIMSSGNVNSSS
RESULT TYPE: EC50 (nM)

These recorded examples may help you get a feel for the data.
CCc1nc(-c2ccc(-c3ccc(CCC(N)(CO)COP(=O)(O)O)cc3)cc2)co1 (racemic) = 5
CCc1nc(-c2ccc(-c3ccc(CCC(N)(CO)CO)cc3)cc2)co1 = 332

[1] CCc1nc(-c2ccc(-c3ccc(CC[C@](N)(CO)COP(=O)(O)O)cc3)cc2)co1
[2] CCc1nc(-c2ccc(-c3ccc(CC[C@@](N)(CO)COP(=O)(O)O)cc3)cc2)co1
Task: Lab notebook, comparison: 1 versus 2 , higher EC50 goes to which? Your choice should be expressed through its label.
Output: 2
(2: 469 nM, 1: 2.2 nM)
